SYSTEM NAME: T1, PunR (YdhB), LysR-family regulator (Escherichia coli K-12 (ASKA collection …, UniProt P0ACR2 1-310))
T1 sequence: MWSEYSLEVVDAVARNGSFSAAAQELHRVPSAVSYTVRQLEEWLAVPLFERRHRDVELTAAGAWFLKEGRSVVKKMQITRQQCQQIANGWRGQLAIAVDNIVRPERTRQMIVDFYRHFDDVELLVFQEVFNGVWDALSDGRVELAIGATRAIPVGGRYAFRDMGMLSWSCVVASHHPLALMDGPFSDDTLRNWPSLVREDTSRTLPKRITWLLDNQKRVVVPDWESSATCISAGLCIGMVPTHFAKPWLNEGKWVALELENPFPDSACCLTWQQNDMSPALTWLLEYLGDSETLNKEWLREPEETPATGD
PROTOCOL SUMMARY: fluorescence polarization; 0.35 mM adenine; 10 mM MgSO4; FP: 20 mM Tris-HCl pH 7.5, 0.1 M NaCl, 0.5 mM EDTA, 10 mM MgSO4, 2 mM DTT, 5 ug/ml herring sperm DNA, 10 nM DNA, 30 C 1 h; EMSA: PBS pH 8, 10 mM MgSO4, 2 mM DTT, 0.25 mM adenine (Methods; 1 or 10 mM in Results and Fig. S3), 100 nM DNA, 30 C 1 h then 25 C 1 h, 6% native PAGE Tris-glycine with 0.25 mM adenine
ASSAY SETUP: protein: recombinant; tags: N-terminal His6; chain copies: 4; label: 5' 6-carboxyfluorescein on printed strand; blunt
pKd: −log10 of the molar value.
PROPERTY MEASURED: pKd

BINDER | PROPERTY MEASURED | QUANTITATIVE RESULT
PunR-binding site 36 bp upstream of punC (dsDNA) DNA 1: TGGGGACTGGTTTCAAAAATTTTGCAGGCAGAGGGG DNA 2: CCCCTCTGCCTGCAAAATTTTTGAAACCAGTCCCCA | pKd | 7.57
